Molecular target: ERK2 (Homo sapiens, UniProt P28482)
Sequence (P28482 whole entry, species assumed): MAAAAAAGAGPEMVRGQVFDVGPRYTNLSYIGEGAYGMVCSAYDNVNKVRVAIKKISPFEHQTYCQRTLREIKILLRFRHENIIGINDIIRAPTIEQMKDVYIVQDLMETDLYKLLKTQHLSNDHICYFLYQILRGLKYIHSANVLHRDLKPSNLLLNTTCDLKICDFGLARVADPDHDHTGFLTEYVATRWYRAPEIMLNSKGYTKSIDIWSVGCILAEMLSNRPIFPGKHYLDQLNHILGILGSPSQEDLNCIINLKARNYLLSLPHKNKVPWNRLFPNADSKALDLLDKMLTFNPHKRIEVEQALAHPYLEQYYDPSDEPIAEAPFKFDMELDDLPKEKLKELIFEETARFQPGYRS
Experiment: ERK2 enzyme assay (SPA, myelin basic protein substrate)
Assay type: biochemical
pIC50: −log10 of the molar value.
parameter.measured: pIC50

Request: Note pIC50 for the compound shown: COc1nccc(C(C#N)c2nc3ccccc3s2)n1 (stereo not drawn) [Compound 102]
Response: < 4.52

New cases:
Request: Note pIC50 for the compound shown: CSc1nccc(C(C#N)c2nc3ccccc3s2)n1 (stereo not drawn) [Compound 4]
Response: < 4.52

Request: Note pIC50 for the compound shown: N#CC(c1ccnc(OCc2ccccc2)n1)c1nc2ccccc2s1 (stereo not drawn) [Compound 80]
Response: < 4.52

---

Target: recombinant, pre-activated GST-JNK3 (Homo sapiens)
Sequence (P53779 whole entry): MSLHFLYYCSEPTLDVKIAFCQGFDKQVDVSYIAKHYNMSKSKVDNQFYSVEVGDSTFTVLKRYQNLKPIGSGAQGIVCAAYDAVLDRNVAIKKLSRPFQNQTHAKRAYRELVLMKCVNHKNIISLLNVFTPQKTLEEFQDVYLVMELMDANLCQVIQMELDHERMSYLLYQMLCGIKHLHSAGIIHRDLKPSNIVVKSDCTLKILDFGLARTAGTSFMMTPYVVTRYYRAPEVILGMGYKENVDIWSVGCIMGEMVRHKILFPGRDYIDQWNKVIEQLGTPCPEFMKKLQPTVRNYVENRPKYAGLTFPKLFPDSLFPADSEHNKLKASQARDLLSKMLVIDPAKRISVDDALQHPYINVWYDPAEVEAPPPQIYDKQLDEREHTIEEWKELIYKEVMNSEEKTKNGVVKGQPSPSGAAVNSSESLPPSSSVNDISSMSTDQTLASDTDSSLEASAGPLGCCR
Test: JNK3 enzyme assay (SPA, GST-c-Jun phosphorylation)
Conditions: 2 μM ATP, 120 min at R.T
parameter.measured: IC50 (nM)

P: N#CC(c1ccnc(NCCO)n1)c1nc2ccccc2s1 (centres unmarked) [Compound 23]
Q: N#CC(c1ccnc(Cl)n1)c1nc2ccccc2s1 (centres unmarked) [Compound 1]
Request: I'd appreciate it if you could identify which of P and Q has the greater IC50. # reply format: chosen label
Response: P

I: COc1nccc(C(C#N)c2nc3ccccc3s2)n1 (centres unmarked) [Compound 102]
II: N#CC(c1ccnc(NCCc2c[nH]cn2)n1)c1nc2ccccc2s1 (centres unmarked) [Compound 10]
Request: I'd appreciate it if you could identify which of I and II has the greater IC50. # reply format: chosen label
Response: I

P: CNc1nccc(C(C#N)c2nc3ccccc3s2)n1 (centres unmarked) [Compound 15]
Q: COc1ccc(Oc2nccc(C(C#N)c3nc4ccccc4s3)n2)cc1 (centres unmarked) [Compound 96]
R: CSc1nccc(C(C#N)c2nc3ccccc3s2)n1 (centres unmarked) [Compound 4]
S: N#CC(c1ccnc(OCc2ccccc2)n1)c1nc2ccccc2s1 (centres unmarked) [Compound 80]
Request: // sort entries: IC50, high to low # format: label list in the order the request specifies
Response: P, R, S, Q

---

Where a name gives a salt, the structure may show the parent alone.
parameter.measured: melting point

Request: Note melting point for the compound shown: N#CC(c1ccnc(NCCN2CCCCC2)n1)c1nc2ccccc2s1 (centres unmarked) (as salt: TFA) [Compound 48]
Response: 228 to 230 °C

Request: Note melting point for the compound shown: N#CC(c1ccnc(NCCc2ccccn2)n1)c1nc2ccccc2s1 (centres unmarked) (as salt: TFA) [Compound 28]
Response: 247 °C (dec.)

Request: Note melting point for the compound shown: N#CC(c1ccnc(NCCc2ccc(O)cc2)n1)c1nc2ccccc2s1 (centres unmarked) [Compound 43]
Response: 258 to 261 °C

Request: Note melting point for the compound shown: N#CC(c1ccnc(NCc2ccccn2)n1)c1nc2ccccc2s1 (centres unmarked) (as salt: TFA) [Compound 29]
Response: 250 °C (dec.)

Request: Note melting point for the compound shown: Cn1cncc1CCNc1nccc(C(C#N)c2nc3ccccc3s2)n1 (centres unmarked) (as salt: TFA) [Compound 49]
Response: 219 to 220 °C

Request: Note melting point for the compound shown: CN(C)CCCNc1nccc(C(C#N)c2nc3ccccc3s2)n1 (centres unmarked) (as salt: TFA) [Compound 47]
Response: 204 to 205 °C

Request: Note melting point for the compound shown: N#CC(c1ccnc(N2CCCC2)n1)c1nc2ccccc2s1 (centres unmarked) [Compound 26]
Response: 270 to 272 °C

Request: Note melting point for the compound shown: N#CC(c1ccnc(NCCc2ccccc2)n1)c1nc2ccccc2s1 (centres unmarked) [Compound 27]
Response: 256 °C (dec.)
